System: NOMO1
Assay: cell viability relative to DMSO control; higher = less cytotoxic
Conditions: RPMI 5 mM glucose + 10% FBS; 48 h; 46.1 µM
Consider the following compounds; for each one, report its cell viability.

Noted for CC(C)(C)NC(=O)[C@@H]1CN(Cc2cccnc2)CCN1C[C@@H](O)C[C@@H](Cc1ccccc1)C(=O)N[C@H]1c2ccccc2C[C@H]1O.O=S(=O)(O)O : its cell viability reads 107%

Noted for CC(C)NCC(O)COc1ccc(CCOCC2CC2)cc1 (stereo not given) : its cell viability reads 19.9%

Noted for Cc1ccc(C(=O)c2cc(O)c(O)c([N+](=O)[O-])c2)cc1 : its cell viability reads 92.2%

Noted for O=C(CCCCCCC(=O)Nc1ccccc1)NO : its cell viability reads 5%

Noted for CC(NCc1ccc2c(c1)[nH]/c(=N\C(=O)c1ccc(-c3cn[nH]c3)s1)n2CC(C)(C)O)C(C)(C)C (stereo not given) : its cell viability reads 3.08%

====

Tested on: P12-Ichikawa
Test: cell viability relative to DMSO control; higher = less cytotoxic
Settings: RPMI 5 mM glucose + 10% dialyzed FBS; 48 h; 0.000781 µM
Consider the following compounds; for each one, report its cell viability.
Give the value, in units of %, as a plain number.

Noted for CC(C)NCC(O)c1ccc(NS(C)(=O)=O)cc1 (stereo unspecified) : its cell viability reads 101

Noted for NC\1=N\C(=O)N(\C=C1)[C@H]\2[C@H](O)[C@H](O)C(=C2F)\CO : its cell viability reads 91.8

Noted for COc1ccc(Nc2cc(-c3cnc(N)nc3)nc(N3CCOCC3)n2)cn1 : its cell viability reads 93.7

Noted for COc1cc(OC)c(NC(=O)Nc2cc(C)on2)cc1Cl : its cell viability reads 98.1

Noted for CC(C)[C@H](CO)Nc1nc(Nc2cccc(Cl)c2)c2ncn(C(C)C)c2n1 : its cell viability reads 97.7

Noted for CN(C)c1ccc(Nc2nc(N)n(C(=O)c3c(F)cccc3F)n2)cc1 : its cell viability reads 114

Noted for Cc1[nH]c(/C=C2\C(=O)Nc3ccc([S+](=O)([O-])Cc4c(Cl)cccc4Cl)cc32)c(C)c1C(=O)N1CCC[C@@H]1CN1CCCC1 : its cell viability reads 98

Noted for C[N+](C)([O-])CCNc1ccc(NCC[N+](C)(C)[O-])c2c1C(=O)c1c(O)ccc(O)c1C2=O : its cell viability reads 84.3

Noted for N\C1=N\C2=C(N=C[N]2COC(CO)CO)C(=O)N1 : its cell viability reads 101

Noted for NC(=O)c1cccc(N)c1 : its cell viability reads 101

Noted for CC(C)c1ccccc1Cc1cc(C(=O)Nc2ccc([S+](=O)([O-])c3ccccc3C(C)(C)C)cc2)c(O)c(O)c1O : its cell viability reads 111

Noted for Cc1c(C(=O)Nc2cccc(C(F)(F)F)c2)cc(-c2ccccc2)n1CCCN1CCOCC1 : its cell viability reads 105

Noted for CO[C@@H]1C(N(C)C(=O)c2ccccc2)C[C@H]2O[C@]1(C)n1c3ccccc3c3c4c(c5c6ccccc6n2c5c31)C(=O)NC4=O (stereo partly specified) : its cell viability reads 78.9

Noted for COC1=CC2=C(C=C1OC)[C@H]3[C@@H](CO2)OC4=C(C=CC5=C4\C=C/C(C)(C)O5)C3=O : its cell viability reads 84.1

Noted for Cc1cc(Cl)ccc1OCCCC(=O)NO : its cell viability reads 113

Noted for CC[C@@]1(O)C[C@H](O[C@H]2C[C@H](N(C)C)[C@H](O[C@H]3C[C@H](O)[C@H](O[C@H]4CCC(=O)[C@H](C)O4)[C@H](C)O3)[C@H](C)O2)c2c(cc3c(c2O)C(=O)c2c(O)cccc2C3=O)[C@H]1C(=O)OC : its cell viability reads 95.5

Noted for O=C1NC(O)CCN1[C@@H]1O[C@H](CO)[C@@H](O)[C@H]1O (stereo partly specified) : its cell viability reads 118

Noted for OC1=CC=C(C=C1)\C2=C\C(=O)C3=C(O2)C=C(O)C=C3O : its cell viability reads 117

Noted for O=[N+]([O-])c1cnc(Sc2nnc(O)n2-c2ccc3c(c2)OCCO3)s1 : its cell viability reads 83.6

Noted for Oc1cc(O)cc(/C=C/c2ccc(O)c(O)c2)c1 : its cell viability reads 87.6

Noted for Cc1ncc([N+](=O)[O-])n1CCO : its cell viability reads 121

Noted for CNCC(O)C(O)C(O)C(O)CO.O=C(O)c1ccc(-c2cc3cccnc3c(-c3ccc4nonc4c3)n2)cc1 : its cell viability reads 104

Noted for CN(C)CC/C=C1/c2ccccc2COc2ccc(CC(=O)O)cc21 : its cell viability reads 122

Noted for C#C[C@]1(O)CC[C@H]2[C@@H]3CCc4cc(OC)ccc4[C@H]3CC[C@@]21C : its cell viability reads 103

Noted for O=c1[nH]cnc2c1ncn2[C@H]1CC[C@@H](CO)O1 : its cell viability reads 83.7

Noted for CC(NCc1ccc2c(c1)[nH]/c(=N\C(=O)c1ccc(-c3cn[nH]c3)s1)n2CC(C)(C)O)C(C)(C)C (stereo unspecified) : its cell viability reads 134
